Reference source: patent EP0185961A2

Give pest or weed control at 1250 g/ha for every item shown.
# Test system: Reispflanzen
# Measurement Description: Growth inhibition in paddy rice, small plots
# Measurement Context: Oryza sativa, 504 h, read-out: Wuchsshemmung (%)
Field: numeric (%). Do not append units.

### Prompt Param item = CCc1cccc(CC)c1-n1cncc1C(=O)NS(=O)(=O)c1ccccc1Cl ; retrieve measured pest or weed control at 1250 g/ha.
### Response 21

### Prompt Repeat for the following compound: CCc1cccc(CC)c1-n1cncc1C(=O)ON=C(C)C1CC1
### Response 19

### Prompt Repeat for the following compound: CCc1cccc(CC)c1-n1cncc1C(=O)OCSC
### Response 21

### Prompt Repeat for the following compound: CCc1cccc(CC)c1-n1cncc1C(=O)NCCO
### Response 21

###

# Test system: Reispflanzen
# Measurement Description: Growth inhibition in paddy rice, small plots
# Measurement Context: Oryza sativa, 504 h, read-out: Wuchsshemmung (%)
Outcome Measure: pest or weed control at 1250 g/ha (%)
Field: numeric (%). Do not append units.

### Prompt Param item = CCc1cccc(CC)c1-n1cncc1-c1nnn[nH]1 [Beispiel 5] ; retrieve measured pest or weed control at 1250 g/ha.
### Response 19

### Prompt Repeat for the following molecule: CCc1cccc(CC)c1-n1cncc1C(=O)ON1C(=O)c2ccccc2C1=O [Beispiel 2]
### Response 22

### Prompt Repeat for the following molecule: CCc1cccc(CC)c1-n1cncc1C=O [Beispiel 13, 1-(2,6-Diethylphenyl)-5-formyl-imidazol]
### Response 24

### Prompt Repeat for the following molecule: CCc1cccc(CC)c1-n1cncc1C(=O)ON=C(C)C(C)C [Beispiel 42]
### Response 19

### Prompt Repeat for the following molecule: CCc1cccc(CC)c1-n1cncc1-c1nc(C)no1 [Beispiel 7]
### Response 24

### Prompt Repeat for the following molecule: CCc1cccc(CC)c1-n1cncc1C(=O)NCC#N [Beispiel 57]
### Response 20

### Prompt Repeat for the following molecule: CCc1cccc(CC)c1-n1cncc1C(=O)OC(=O)c1cncn1-c1c(CC)cccc1CC [Beispiel 115]
### Response 28

### Prompt Repeat for the following molecule: CCc1cccc(CC)c1-n1cncc1C(=O)ON=C1CCCCC1 [Beispiel 51]
### Response 26

### Prompt Repeat for the following molecule: CCc1cccc(CC)c1-n1cncc1C(=O)n1cncn1 [Beispiel 76]
### Response 19

###

# Test system: Roggen
# Measurement Description: Growth inhibition in cereals, greenhouse tray test, sprayed at 3-leaf stage
# Type: in vivo
# Measurement Context: 1,25 kg/ha; % of growth increment of untreated controls; read-out: Wuchsshemmung in % bei Roggen
Give pest or weed control at 1250 g/ha for every item shown.
Include the unit after the number when you answer.

### Prompt Param item = CCc1cccc(CC)c1-n1cncc1C(N)=NO [Beispiel 8] ; retrieve measured pest or weed control at 1250 g/ha.
### Response 17%

### Prompt Repeat for the following compound: CCc1cccc(CC)c1-n1cncc1C(=O)ON=C(C)C1CC1 [Beispiel 45]
### Response 15%

### Prompt Repeat for the following compound: CCc1cccc(CC)c1-n1cncc1C(=O)ON=C1CCCCC1 [Beispiel 51]
### Response 20%

### Prompt Repeat for the following compound: CCc1cccc(CC)c1-n1cncc1-c1nc(C)no1 [Beispiel 7]
### Response 21%

### Prompt Repeat for the following compound: CCc1cccc(CC)c1-n1cncc1C=O [Beispiel 13, 1-(2,6-Diethylphenyl)-5-formyl-imidazol]
### Response 19%

### Prompt Repeat for the following compound: CCc1cccc(CC)c1-n1cncc1C(=O)OC1CCCCC1 [Beispiel 36]
### Response 13%

### Prompt Repeat for the following compound: CCOC(=O)CSC(=O)c1cncn1-c1c(CC)cccc1CC [Beispiel 54]
### Response 18%

### Prompt Repeat for the following compound: CCc1cccc(CC)c1-n1cncc1C(=O)NN(C)C [Beispiel 66]
### Response 18%

### Prompt Repeat for the following compound: CCc1cccc(CC)c1-n1cncc1C(=O)NCC#N [Beispiel 57]
### Response 17%

### Prompt Repeat for the following compound: CCc1cccc(CC)c1-n1cncc1C(=O)OCSC [Beispiel 4]
### Response 20%
